- assayed_target: glucan synthase (GS) (Candida albicans, UniProt O13428)
- Construct: Extraction of GS activity from membranes was performed at a protein concentration of 5 mg/mL in extraction buffer; endogenous in cells; host or cells: Candida albicans MY1055 (membrane fraction, detergent extraction, product entrapment)
- Sequence (O13428 1-1897): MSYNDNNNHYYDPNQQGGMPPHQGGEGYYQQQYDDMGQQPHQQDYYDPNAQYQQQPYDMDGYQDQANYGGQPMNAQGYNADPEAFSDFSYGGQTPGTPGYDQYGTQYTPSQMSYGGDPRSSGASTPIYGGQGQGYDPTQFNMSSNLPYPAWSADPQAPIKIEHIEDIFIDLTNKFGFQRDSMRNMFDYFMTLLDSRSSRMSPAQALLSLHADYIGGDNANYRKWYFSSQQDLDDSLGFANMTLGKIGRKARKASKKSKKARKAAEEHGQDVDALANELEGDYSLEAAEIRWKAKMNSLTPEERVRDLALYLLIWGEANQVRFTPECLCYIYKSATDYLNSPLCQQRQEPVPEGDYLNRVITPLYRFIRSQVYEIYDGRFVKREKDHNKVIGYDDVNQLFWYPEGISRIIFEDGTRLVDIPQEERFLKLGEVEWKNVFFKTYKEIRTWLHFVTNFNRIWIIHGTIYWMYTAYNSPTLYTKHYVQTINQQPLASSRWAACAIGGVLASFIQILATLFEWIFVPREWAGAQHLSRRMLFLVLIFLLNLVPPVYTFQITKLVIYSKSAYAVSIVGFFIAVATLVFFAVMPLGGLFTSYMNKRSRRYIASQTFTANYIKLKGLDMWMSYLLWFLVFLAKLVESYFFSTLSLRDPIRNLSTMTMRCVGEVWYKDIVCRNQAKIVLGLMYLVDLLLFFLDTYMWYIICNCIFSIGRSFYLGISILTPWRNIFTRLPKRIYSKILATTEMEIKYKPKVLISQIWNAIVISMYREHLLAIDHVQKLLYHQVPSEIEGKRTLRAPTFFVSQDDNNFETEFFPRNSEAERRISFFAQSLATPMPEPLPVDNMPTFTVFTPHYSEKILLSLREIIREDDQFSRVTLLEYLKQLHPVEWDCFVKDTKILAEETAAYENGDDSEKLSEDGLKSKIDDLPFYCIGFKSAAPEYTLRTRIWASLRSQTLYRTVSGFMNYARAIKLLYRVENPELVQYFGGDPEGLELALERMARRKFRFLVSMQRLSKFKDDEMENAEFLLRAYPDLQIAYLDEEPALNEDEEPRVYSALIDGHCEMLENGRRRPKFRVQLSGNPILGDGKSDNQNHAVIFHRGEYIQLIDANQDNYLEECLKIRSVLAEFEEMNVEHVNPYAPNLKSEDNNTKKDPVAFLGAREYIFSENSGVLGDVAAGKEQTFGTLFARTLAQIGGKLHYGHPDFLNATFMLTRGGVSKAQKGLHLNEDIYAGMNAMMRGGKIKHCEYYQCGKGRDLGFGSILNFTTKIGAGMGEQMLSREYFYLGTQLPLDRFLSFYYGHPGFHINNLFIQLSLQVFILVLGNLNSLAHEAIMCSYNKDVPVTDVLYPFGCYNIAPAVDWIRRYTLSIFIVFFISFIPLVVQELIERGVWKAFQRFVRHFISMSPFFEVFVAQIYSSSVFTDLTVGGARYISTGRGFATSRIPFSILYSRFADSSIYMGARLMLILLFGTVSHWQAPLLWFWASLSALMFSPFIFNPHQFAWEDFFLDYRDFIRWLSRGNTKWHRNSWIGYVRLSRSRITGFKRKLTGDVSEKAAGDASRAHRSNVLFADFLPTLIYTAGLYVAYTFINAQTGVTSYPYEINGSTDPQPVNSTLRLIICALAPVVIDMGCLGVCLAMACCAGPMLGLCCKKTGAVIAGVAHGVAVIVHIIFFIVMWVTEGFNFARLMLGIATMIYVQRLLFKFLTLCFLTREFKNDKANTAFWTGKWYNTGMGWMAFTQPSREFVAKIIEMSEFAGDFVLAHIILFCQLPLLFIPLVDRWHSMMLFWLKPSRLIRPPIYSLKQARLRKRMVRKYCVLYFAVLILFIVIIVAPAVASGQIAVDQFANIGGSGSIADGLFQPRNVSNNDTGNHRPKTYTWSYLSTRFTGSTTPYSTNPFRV
- Sequence (O42825 1-195 partner limits assumed): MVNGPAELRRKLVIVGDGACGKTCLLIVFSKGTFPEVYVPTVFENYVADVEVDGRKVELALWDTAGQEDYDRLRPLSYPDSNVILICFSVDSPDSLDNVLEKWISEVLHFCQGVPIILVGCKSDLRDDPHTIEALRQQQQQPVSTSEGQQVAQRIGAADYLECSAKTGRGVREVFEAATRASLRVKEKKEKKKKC
- experiment_description: Glucan synthase inhibition (polymerization assay, 96-well)
- Assay type: biochemical
- condition_summary: glucan synthase prepared from Candida albicans MY1055; 60 min incubation at 22° C.; read-out: Candida Albicans GS IC50 (ng/mL) (converted)
The label 1 is reserved for IC50 strictly under 30 nM; 0 covers values equal to or above it.

QUERY: Is the reported IC50 for CC(C)[C@@H](C)[C@@]1(C)CC[C@]2(C)[C@H]3CC[C@@H]4[C@@]5(COC[C@@]4(C)[C@@H](OCC(C)(C(C)C)N(C)C)[C@H](n4ncnn4)C5)C3=CC(=O)[C@@]2(C)[C@@H]1C(=O)O (stereo partly drawn) [Example 4B] strictly below 30 nM?
RESULT: 0

QUERY: Is the reported IC50 for CC(C)[C@@H](C)[C@@]1(C)CC[C@]2(C)[C@H]3CC[C@@H]4[C@@]5(COC[C@@]4(C)[C@@H](OCCN(C)C)[C@H](n4nnc(N)n4)C5)C3=CC[C@@]2(C)[C@@H]1C(=O)O [Example 114] strictly below 30 nM?
RESULT: 1

QUERY: Is the reported IC50 for CC(C)C(C(C)O[C@H]1[C@H](n2nnc(N)n2)C[C@@]23COC[C@]1(C)[C@@H]2CC[C@H]1C3=CC[C@@]2(C)[C@H](C(=O)O)[C@@](C)([C@H](C)C(C)C)CC[C@]12C)N(C)C (stereo partly drawn) [Example 49] strictly below 30 nM?
RESULT: 1

QUERY: Is the reported IC50 for CCCN(C)[C@](C)(CO[C@H]1[C@H](n2nnc(N)n2)C[C@@]23COC[C@]1(C)[C@@H]2CC[C@H]1C3=CC[C@@]2(C)[C@H](C(=O)O)[C@@](C)([C@H](C)C(C)C)CC[C@]12C)C(C)C [Example 69] strictly below 30 nM?
RESULT: 1

QUERY: Is the reported IC50 for CC(C)[C@@H](C)[C@@]1(C)CC[C@]2(C)[C@H]3CC[C@@H]4[C@@]5(COC[C@@]4(C)[C@@H](OCCC4(N)CCCC4)[C@H](n4nnc(N)n4)C5)C3=CC[C@@]2(C)[C@@H]1C(=O)O [Example 25] strictly below 30 nM?
RESULT: 0

QUERY: Is the reported IC50 for CCCCN[C@](C)(CO[C@H]1[C@H](n2nnc(N)n2)C[C@@]23COC[C@]1(C)[C@@H]2CC[C@H]1C3=CC[C@@]2(C)[C@H](C(=O)O)[C@@](C)([C@H](C)C(C)C)CC[C@]12C)C(C)C [Example 71] strictly below 30 nM?
RESULT: 1

###

- assayed_target: glucan synthase (GS) (Candida albicans)
- Construct: Extraction of GS activity from membranes was performed at a protein concentration of 5 mg/mL in extraction buffer; endogenous in cells; host or cells: Candida albicans MY1055 (membrane fraction, detergent extraction, product entrapment)
- experiment_description: Glucan synthase inhibition (polymerization assay, 96-well)
- Assay type: biochemical
- condition_summary: glucan synthase prepared from Candida albicans MY1055; 60 min incubation at 22° C.; read-out: Candida Albicans GS IC50 (ng/mL) (converted)
Kindly state IC50 for each of the entries shown.
Lab book: enter the figure in µM, no units written.

QUERY: Look up and state reported IC50 for CC(C)[C@@H](C)[C@@]1(C)CC[C@]2(C)[C@H]3CC[C@@H]4[C@@]5(COC[C@@]4(C)[C@@H](OC[C@@H](C(C)C)N(C)C)[C@H](n4nnc(N)n4)C5)C3=CC[C@@]2(C)[C@@H]1C(=O)O [Example 80]
RESULT: 0.00598

QUERY: Look up and state reported IC50 for CC(C)[C@@H](C)[C@@]1(C)CC[C@]2(C)[C@H]3CC[C@@H]4C5(COCC4(C)[C@@H](OCC4CCCN4C)[C@H](n4nnc(N)n4)C5)C3=CC[C@@]2(C)[C@@H]1C(=O)O (stereo in doubt) [Example 46]
RESULT: 0.0214

QUERY: Look up and state reported IC50 for CC(C)[C@@H](C)[C@@]1(C)CC[C@]2(C)[C@H]3CC[C@@H]4[C@@]5(COC[C@@]4(C)[C@@H](OC[C@](C)(C(C)C)N(C)C)[C@H](n4nnc(N)n4)C5)C3=CC(=O)[C@@]2(C)[C@@H]1C(=O)O (single isomer, unassigned) [Example 15A]
RESULT: 0.0646

QUERY: Look up and state reported IC50 for CC(C)[C@@H](C)[C@@]1(C)CC[C@]2(C)[C@H]3CC[C@@H]4[C@@]5(COC[C@@]4(C)[C@@H](OC[C@](C)(N)C(C)C)[C@H](n4nnnc4N)C5)C3=CC[C@@]2(C)[C@@H]1C(=O)O [Example 9]
RESULT: 0.0565

QUERY: Look up and state reported IC50 for CC(C)[C@@H](C)[C@@]1(C)CC[C@]2(C)[C@H]3CC[C@@H]4[C@@]5(COC[C@@]4(C)[C@@H](OC[C@](C)(N)C(C)C)[C@H](n4nnc(CO)n4)C5)C3=CC[C@@]2(C)[C@@H]1C(=O)O [Example 43B]
RESULT: 0.0851

QUERY: Look up and state reported IC50 for CNC1(CO[C@H]2[C@H](n3nnc(N)n3)C[C@@]34COC[C@]2(C)[C@@H]3CC[C@H]2C4=CC[C@@]3(C)[C@H](C(=O)O)[C@@](C)([C@H](C)C(C)C)CC[C@]23C)CCCCC1 [Example 32]
RESULT: 0.0117

QUERY: Look up and state reported IC50 for CC(C)[C@@H](C)[C@@]1(C)CC[C@]2(C)[C@H]3CC[C@@H]4[C@@]5(COC[C@@]4(C)[C@@H](OC[C@H](N)c4ccccc4)[C@H](n4nnc(N)n4)C5)C3=CC[C@@]2(C)[C@@H]1C(=O)O [Example 88]
RESULT: 0.0267

QUERY: Look up and state reported IC50 for CCNC(C)(COC1C(n2ncnn2)CC23COCC1(C)C2CCC1C3=CCC2(C)C(C(=O)O)C(C)(C(C)C(C)C)CCC12C)C(C)C (centres unmarked) [Example 109]
RESULT: 0.0464

QUERY: Look up and state reported IC50 for CC(C)[C@@H](C)[C@@]1(C)CC[C@]2(C)[C@H]3CC[C@@H]4[C@@]5(COC[C@@]4(C)[C@@H](OC[C@@](C)(C(C)C)N(C)C)[C@H](n4nnc(N)n4)C5)C3=CC[C@@]2(C)[C@@H]1C(=O)O [Example 8]
RESULT: 0.0132

QUERY: Look up and state reported IC50 for Cc1nnnn1[C@@H]1C[C@@]23COC[C@](C)([C@@H]2CC[C@H]2C3=CC[C@@]3(C)[C@H](C(=O)O)[C@@](C)([C@H](C)C(C)C)CC[C@]23C)[C@H]1OCCN [Example 41A]
RESULT: 0.199

QUERY: Look up and state reported IC50 for CCN[C@@](C)(CO[C@H]1[C@H](n2nnc(N)n2)C[C@@]23COC[C@]1(C)[C@@H]2CC[C@H]1C3=CC[C@@]2(C)[C@H](C(=O)O)[C@@](C)([C@H](C)C(C)C)CC[C@]12C)C(C)(C)C [Example 20]
RESULT: 0.0043

QUERY: Look up and state reported IC50 for CC(C)[C@@H](C)[C@@]1(C)CC[C@]2(C)[C@H]3CC[C@@H]4[C@@]5(COC[C@@]4(C)[C@@H](OC[C@](C)(NCc4ccccc4)C(C)C)[C@H](n4nnc(N)n4)C5)C3=CC[C@@]2(C)[C@@H]1C(=O)O [Example 61]
RESULT: 0.0107

QUERY: Look up and state reported IC50 for CC(C)[C@H](N)CO[C@H]1[C@H](n2nnc(N)n2)C[C@@]23COC[C@]1(C)[C@@H]2CC[C@H]1C3=CC[C@@]2(C)[C@H](C(=O)O)[C@@](C)([C@H](C)C(C)C)CC[C@]12C [Example 93]
RESULT: 0.00936

QUERY: Look up and state reported IC50 for CC(C)[C@@H](C)[C@@]1(C)CC[C@]2(C)[C@H]3CC[C@@H]4[C@@]5(COC[C@@]4(C)[C@@H](OCC(C)(N)C(C)C)[C@H](n4cnnn4)C5)C3=CC[C@@]2(C)[C@@H]1C(=O)O (some centres unmarked) [Example 2A]
RESULT: 0.0828

###

Kindly state IC50 for each of the entries shown.
- assayed_target: glucan synthase (GS) (Candida albicans, UniProt O13428)
- Construct: Extraction of GS activity from membranes was performed at a protein concentration of 5 mg/mL in extraction buffer; endogenous in cells; host or cells: Candida albicans MY1055 (membrane fraction, detergent extraction, product entrapment)
- experiment_description: Glucan synthase inhibition (polymerization assay, 96-well)
- Assay type: biochemical
- condition_summary: glucan synthase prepared from Candida albicans MY1055; 60 min incubation at 22° C.; read-out: Candida Albicans GS IC50 (ng/mL) (converted)
Lab book: enter the figure in µM, no units written.

QUERY: Provide IC50, system glucan synthase (GS) (Candida albicans, UniProt O13428), entry CC(C)[C@@H](C)[C@@]1(C)CC[C@]2(C)[C@H]3CC[C@@H]4[C@@]5(COC[C@@]4(C)[C@@H](OC[C@@H](C4CC4)N(C)C)[C@H](n4nnc(N)n4)C5)C3=CC[C@@]2(C)[C@@H]1C(=O)O [Example 83]
RESULT: 0.0165

QUERY: Provide IC50, system glucan synthase (GS) (Candida albicans, UniProt O13428), entry CN[C@@](C)(CO[C@H]1[C@H](n2nnc(NC(C)=O)n2)C[C@@]23COC[C@]1(C)[C@@H]2CC[C@H]1C3=CC[C@@]2(C)[C@H](C(=O)O)[C@@](C)([C@H](C)C(C)C)CC[C@]12C)C(C)C [Example 39B]
RESULT: 0.0155

QUERY: Provide IC50, system glucan synthase (GS) (Candida albicans, UniProt O13428), entry CCCN[C@@](C)(CO[C@H]1[C@H](n2nnc(N)n2)C[C@@]23COC[C@]1(C)[C@@H]2CC[C@H]1C3=CC[C@@]2(C)[C@H](C(=O)O)[C@@](C)([C@H](C)C(C)C)CC[C@]12C)C(C)C [Example 55]
RESULT: 0.0115

QUERY: Provide IC50, system glucan synthase (GS) (Candida albicans, UniProt O13428), entry CC(C)[C@@H](C)[C@@]1(C)CC[C@]2(C)[C@H]3CC[C@@H]4[C@@]5(COC[C@@]4(C)[C@@H](OCCN)[C@H](n4cnnn4)C5)C3=CC[C@@]2(C)[C@@H]1C(=O)O [Example 104]
RESULT: 0.118

QUERY: Provide IC50, system glucan synthase (GS) (Candida albicans, UniProt O13428), entry CCN(C)C(C)(CCOC)CO[C@H]1[C@H](n2nnc(N)n2)C[C@@]23COC[C@]1(C)[C@@H]2CC[C@H]1C3=CC[C@@]2(C)[C@H](C(=O)O)[C@@](C)([C@H](C)C(C)C)CC[C@]12C (some centres unmarked) [Example 127]
RESULT: 0.0309
